- MEASURED_TARGET: PDGF-receptor beta enzyme comprising the tyrosine kinase domain (Homo sapiens, UniProt P09619)
- Construct: from amino acid 545 to 1106 of GenBank Access NO: AAA36427
- Sequence (P09619 545-1106): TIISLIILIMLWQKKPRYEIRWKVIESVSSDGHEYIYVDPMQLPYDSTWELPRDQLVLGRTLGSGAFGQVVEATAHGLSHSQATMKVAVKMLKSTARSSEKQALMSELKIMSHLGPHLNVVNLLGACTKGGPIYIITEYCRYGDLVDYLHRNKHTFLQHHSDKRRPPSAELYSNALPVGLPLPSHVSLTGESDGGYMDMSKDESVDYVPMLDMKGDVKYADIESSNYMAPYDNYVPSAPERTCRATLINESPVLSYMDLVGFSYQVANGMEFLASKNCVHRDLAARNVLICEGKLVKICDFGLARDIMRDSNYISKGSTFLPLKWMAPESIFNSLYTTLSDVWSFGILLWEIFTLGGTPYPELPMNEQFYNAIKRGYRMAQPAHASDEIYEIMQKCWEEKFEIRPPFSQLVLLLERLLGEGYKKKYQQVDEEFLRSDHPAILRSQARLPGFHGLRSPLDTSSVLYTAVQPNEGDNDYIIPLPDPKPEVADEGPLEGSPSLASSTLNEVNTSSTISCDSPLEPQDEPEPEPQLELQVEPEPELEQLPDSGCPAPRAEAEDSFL
- ASSAY_DETAILS: Inhibition of PDGF-receptor kinase activity (cell-free, PLC1 peptide, 33P Flashplate)
- Type: biochemical
- COND: PDGF-R kinase activity; compound at 10 uM; read-out: Percent Inhibition @ 10 uM
Measured inhibition at 10 µM accompanies every entry in the list below.
Reply numerically in %, unit not repeated.

Recorded inhibition at 10 µM, per entry:
>  <SMILES_RECORD>
COc1ccc(OC)c2c1Cc1c-2n[nH]c1Nc1ccccc1

>  <inhibition at 10 µM [%]>
90

$$$$
>  <SMILES_RECORD>
COc1ccc(Nc2[nH]nc3c2Cc2cc(Cl)ccc2-3)cc1

>  <inhibition at 10 µM [%]>
92

$$$$
>  <SMILES_RECORD>
CCOC(=O)c1cccc(Nc2[nH]nc3c2Cc2cc(OC)c(OC)cc2-3)c1

>  <inhibition at 10 µM [%]>
90

$$$$
>  <SMILES_RECORD>
Fc1cccc(Nc2[nH]nc3c2Cc2cc(Cl)ccc2-3)c1

>  <inhibition at 10 µM [%]>
88

$$$$

Challenge: Need inhibition at 10 µM, item COc1cc2c(cc1OC)-c1c(c(Nc3cccc(F)c3)nn1C(=O)COC(=O)C(C)C)C2
Response given: 91.5

###

Measured pIC50 accompanies every entry in the list below.
- MEASURED_TARGET: PDGF-receptor beta enzyme comprising the tyrosine kinase domain (Homo sapiens, UniProt P09619)
- Construct: from amino acid 545 to 1106 of GenBank Access NO: AAA36427
- ASSAY_DETAILS: Inhibition of PDGF-receptor kinase activity (cell-free, PLC1 peptide, 33P Flashplate)
- Format: biochemical
- COND: PDGF-R kinase activity; read-out: IC50
- Protocol: PDGF-R kinase activity was assayed by its ability to phosphorylate one of its target proteins, PLCγ, in a cell-free system, in particular, a PLC1 peptide comprising the tyrosine residue where the phosphorylation occurs was used for the assay. […] In order to test the potency of inhibition of present compounds, an IC50 for an individual compound was measured using the above procedure. […]
The meaning of pIC50 here: minus log10 of the concentration in molar units.

Recorded pIC50, per entry:
>  <COMPOUND>
COc1cccc(CNc2[nH]nc3c2Cc2cc(OC)c(OC)cc2-3)c1 [Compound 225]

>  <OBSERVED_PROPERTY>
pIC50

>  <EXPERIMENTAL_VALUE>
7.13

$$$$
>  <COMPOUND>
COc1cc2c(cc1OC)-c1n[nH]c(Nc3ccccn3)c1C2 [Compound 562]

>  <OBSERVED_PROPERTY>
pIC50

>  <EXPERIMENTAL_VALUE>
7.08

$$$$
>  <COMPOUND>
COc1cccc(Nc2[nH]nc3c2Cc2cc(OC(C)C)c(OC(C)C)cc2-3)c1 [Compound 168]

>  <OBSERVED_PROPERTY>
pIC50

>  <EXPERIMENTAL_VALUE>
7.16

$$$$

Challenge: Need pIC50, item CCOc1cc2c(cc1OCC)-c1n[nH]c(NCc3ccccc3)c1C2 [Compound 264]
Response given: 7.07

###

Measured pIC50 accompanies every entry in the list below.
- MEASURED_TARGET: PDGF-receptor beta enzyme comprising the tyrosine kinase domain (Homo sapiens, UniProt P09619)
- Construct: from amino acid 545 to 1106 of GenBank Access NO: AAA36427
- ASSAY_DETAILS: Inhibition of PDGF-receptor kinase activity (cell-free, PLC1 peptide, 33P Flashplate)
- Format: biochemical
- COND: PDGF-R kinase activity; read-out: IC50
The meaning of pIC50 here: minus log10 of the concentration in molar units.

>  <SMILES_RECORD>
COc1ccc2c(c1)Cc1c-2n[nH]c1Nc1ccc(OC)c(OC)c1

>  <pIC50>
5.60

$$$$
>  <SMILES_RECORD>
COCCCOc1cc2c(cc1OC)-c1n[nH]c(Nc3cccc(F)c3)c1C2

>  <pIC50>
7.89

$$$$

# input for lookup
Challenge: Need pIC50, item CCOC(=O)c1cccc(Nc2[nH]nc3c2Cc2cc(OC)c(OC)cc2-3)c1
Response given: 7.17

###

Measured inhibition at 10 µM accompanies every entry in the list below.
- MEASURED_TARGET: PDGF-receptor beta enzyme comprising the tyrosine kinase domain (Homo sapiens, UniProt P09619)
- Construct: from amino acid 545 to 1106 of GenBank Access NO: AAA36427
- ASSAY_DETAILS: Inhibition of PDGF-receptor kinase activity (cell-free, PLC1 peptide, 33P Flashplate)
- Format: biochemical
- COND: PDGF-R kinase activity; compound at 10 uM; read-out: Percent Inhibition @ 10 uM
Reply numerically in %, unit not repeated.

Challenge: Need inhibition at 10 µM, item COCCCOc1ccc2c(c1)Cc1c-2n[nH]c1Nc1cccc(C(=O)OC)c1 [Compound 137]
Response given: 71

Challenge: Need inhibition at 10 µM, item COc1cc2c(cc1OC)-c1c(c(Nc3cccc(F)c3)nn1COC(C)=O)C2 [Compound 496]
Response given: 88.5

Challenge: Need inhibition at 10 µM, item COc1cccc(Nc2[nH]nc3c2Cc2cc(OCCCN4CCCC4)c(OC)cc2-3)c1 [Compound 156]
Response given: 87.5

Challenge: Need inhibition at 10 µM, item CCOc1cc2c(cc1OCC)C(C)c1c-2n[nH]c1Nc1ccc(F)c(Cl)c1 (centres unmarked) [Compound 347]
Response given: 90.5

Challenge: Need inhibition at 10 µM, item Fc1ccc2c(c1)Cc1c-2n[nH]c1Nc1ccc(F)c(Cl)c1 [Compound 202]
Response given: 77

###

Measured inhibition at 10 µM accompanies every entry in the list below.
- MEASURED_TARGET: PDGF-receptor beta enzyme comprising the tyrosine kinase domain (Homo sapiens, UniProt P09619)
- Construct: from amino acid 545 to 1106 of GenBank Access NO: AAA36427
- ASSAY_DETAILS: Inhibition of PDGF-receptor kinase activity (cell-free, PLC1 peptide, 33P Flashplate)
- Format: biochemical
- COND: PDGF-R kinase activity; compound at 10 uM; read-out: Percent Inhibition @ 10 uM
Remember to put the unit after the number in your answer.

Recorded inhibition at 10 µM, per entry:
>  <COMPOUND>
COc1ccc(Nc2[nH]nc3c2Cc2ccc(OC)cc2-3)cc1

>  <inhibition at 10 µM>
92.5%

$$$$
>  <COMPOUND>
Fc1ccc(C(F)(F)F)cc1Nc1[nH]nc2c1Cc1ccccc1-2

>  <inhibition at 10 µM>
92.5%

$$$$
>  <COMPOUND>
COc1cc2c(cc1OC)-c1c(c(Nc3cccc(F)c3)nn1C(=O)CCC(=O)O)C2

>  <inhibition at 10 µM>
96%

$$$$
>  <COMPOUND>
COc1ccc(Nc2[nH]nc3c2Cc2cc(F)ccc2-3)cc1OC

>  <inhibition at 10 µM>
86%

$$$$
>  <COMPOUND>
Cc1cccc2c1Cc1c-2n[nH]c1Nc1cc(F)ccc1F

>  <inhibition at 10 µM>
43%

$$$$

Challenge: Need inhibition at 10 µM, item OCC(O)COc1cccc2c1Cc1c-2n[nH]c1Nc1cccc(Br)c1 (centres unmarked)
Response given: 95.5%

Challenge: Need inhibition at 10 µM, item COC(=O)c1cccc(Nc2[nH]nc3c2Cc2cc4c(cc2-3)OCO4)c1
Response given: 89%

Challenge: Need inhibition at 10 µM, item COc1ccc(OC)c(Nc2[nH]nc3c2C(C)c2ccccc2-3)c1 (centres unmarked)
Response given: 80%

Challenge: Need inhibition at 10 µM, item COc1cc2c(cc1OC)-c1n[nH]c(Nc3c(F)cc(F)cc3F)c1C2
Response given: 95%

Challenge: Need inhibition at 10 µM, item COc1cc2c(cc1OC)C(C)c1c-2n[nH]c1Nc1cccc(Cl)c1 (centres unmarked)
Response given: 35%

Challenge: Need inhibition at 10 µM, item COc1cc2c(cc1OC)-c1c(c(Nc3cccc(F)c3)nn1CC(N)=O)C2
Response given: 94%

###

Measured inhibition at 10 µM accompanies every entry in the list below.
- MEASURED_TARGET: PDGF-receptor beta enzyme comprising the tyrosine kinase domain (Homo sapiens, UniProt P09619)
- Construct: from amino acid 545 to 1106 of GenBank Access NO: AAA36427
- ASSAY_DETAILS: Inhibition of PDGF-receptor kinase activity (cell-free, PLC1 peptide, 33P Flashplate)
- Type: biochemical
- COND: PDGF-R kinase activity; compound at 10 uM; read-out: Percent Inhibition @ 10 uM
Reply numerically in %, unit not repeated.

Challenge: Need inhibition at 10 µM, item COc1ccc2c(c1)Cc1c-2n[nH]c1Nc1ccc(F)cc1 [Compound 82]
Response given: 79

Challenge: Need inhibition at 10 µM, item COc1cc2c(cc1OC)-c1n[nH]c(NC3CCCCC3)c1C2 [Compound 67]
Response given: 77

Challenge: Need inhibition at 10 µM, item COc1cc2c(cc1OCCCN1CCCC1)Cc1c-2n[nH]c1Nc1cccc(F)c1 [Compound 180]
Response given: 98.5
